- methodDescription: Single dose pharmacokinetics in mice
- Assay type: in vivo, mouse
- conditionDetails: female, heterozygous Foxn1nu/Foxn1+, mouse, lung, iv, 4 mg/kg
endpointName: Tmax (min)
Give a bare numeral; the unit min is implied.

Q: I have this molecule here, COc1ccc(C2=Nn3c(nnc3-c3cc(-c4ccc(Cl)cc4)n[nH]3)SC2C)cc1 (stereo not shown) , and I need its recorded Tmax.
Result: 5

---

- methodDescription: Single dose pharmacokinetics in mice
- Type: in vivo, mouse
- conditionDetails: female, heterozygous Foxn1nu/Foxn1+, mouse, plasma, po, 4 mg/kg
endpointName: Tmax

Q: I have this compound here, COc1ccc(C2=Nn3c(nnc3-c3cc(-c4ccc(Cl)cc4)n[nH]3)SC2C)cc1 (stereo not shown) , and I need its recorded Tmax.
Result: 30 min

---

- methodDescription: Single dose pharmacokinetics in mice
- Type: in vivo, mouse
- conditionDetails: female, heterozygous Foxn1nu/Foxn1+, mouse, kidney, po, 4 mg/kg
endpointName: AUC(0-t) (ng·h/mL)
// return numeric value only (unit: ng·h/mL, not printed)

Q: // query AUC(0-t) value for entry COc1ccc(C2=Nn3c(nnc3-c3cc(-c4ccc(Cl)cc4)n[nH]3)SC2C)cc1 (stereo not shown) [UPCDC-10205]
Result: 428

---

- methodDescription: Single dose pharmacokinetics in mice
- Format: in vivo, mouse
- conditionDetails: female, heterozygous Foxn1nu/Foxn1+, mouse, muscle, iv, 4 mg/kg
endpointName: AUC(0-t) (ng·h/mL)
Quick reminder: number only, in ng·h/mL, skip the unit.

Q: What value of AUC(0-t) has been recorded for this entry: COc1ccc(C2=Nn3c(nnc3-c3cc(-c4ccc(Cl)cc4)n[nH]3)SC2C)cc1 (stereo not shown) [UPCDC-10205]
Result: 1630

---

- methodDescription: Single dose pharmacokinetics in mice
- Assay type: in vivo, mouse
- conditionDetails: female, heterozygous Foxn1nu/Foxn1+, mouse, plasma, iv, 4 mg/kg, Vss, mice, IV 4 mg/kg, plasma
endpointName: Vd

Q: Which Vd is listed for COc1ccc(C2=Nn3c(nnc3-c3cc(-c4ccc(Cl)cc4)n[nH]3)SC2C)cc1 (stereo not shown) ?
Result: 2 L/kg

---

- methodDescription: Single dose pharmacokinetics in mice
- Assay type: in vivo, mouse
- conditionDetails: female, heterozygous Foxn1nu/Foxn1+, mouse, plasma, po, 30 mg/kg
endpointName: Tmax (h)
Number only, in h; omit the unit.

Q: Which Tmax value is on record for COc1ccc(C2=Nn3c(nnc3-c3cc(-c4ccc(Cl)cc4)n[nH]3)SC2C)cc1 (stereo not shown) ?
Result: 1

---

- methodDescription: Single dose pharmacokinetics in mice
- Assay type: in vivo, mouse
- conditionDetails: female, heterozygous Foxn1nu/Foxn1+, mouse, plasma, oral, 30 mg/kg
endpointName: bioavailability (%)
Write down the numeric answer in % and omit the unit.

Q: May I ask what bioavailability has been recorded for COc1ccc(C2=Nn3c(nnc3-c3cc(-c4ccc(Cl)cc4)n[nH]3)SC2C)cc1 (stereo not shown) ?
Result: 0.3

---

- methodDescription: Single dose pharmacokinetics in mice
- Assay type: in vivo, mouse
- conditionDetails: female, heterozygous Foxn1nu/Foxn1+, mouse, kidney, po, 30 mg/kg
endpointName: AUC(0-t) (ng·h/mL)
The figure you give is taken to be in ng·h/mL; do not add the unit.

Q: What measured AUC(0-t) goes with COc1ccc(C2=Nn3c(nnc3-c3cc(-c4ccc(Cl)cc4)n[nH]3)SC2C)cc1 (stereo not shown) [UPCDC-10205] ?
Result: 272
